# Lookup of reported IC50 keyed by entry
# TARGET_DESC: human PF4 (Homo sapiens, UniProt P02776)
# Construct: PF4 is a 70 amino acid, lysine-rich 7.8 kDa platelet-specific protein; made in house; host or cells: Escherichia coli BL21DE3 pLysS (pT7-7) and/or Drosophila S2 cells
# TEST_PROTOCOL: Inhibition of PF4 tetramer formation (BS3 cross-linking, SDS-PAGE)
# Format: biochemical
# SETTINGS: read-out: IC50 of PF4 tetramer formation inhibition
Provide only the numeric value, understood in µM.

* O=C(c1ccc2c(c1)C(=O)C(C(=O)NCc1ccccc1)C2=O)c1ccc2c(c1)C(=O)C(C(=O)NCc1ccccc1)C2=O (stereo not drawn) | 6.24
* O=C(c1ccc2c(c1)C(=O)C(C(=O)Cn1cccn1)C2=O)c1ccc2c(c1)C(=O)C(C(=O)Cn1cccn1)C2=O (stereo not drawn) | 3.1

For the next question, use this molecule.
Task: Dear colleague, please send me the reported IC50 for CS(=O)(=O)N1CCC(NC(=O)C2C(=O)c3ccc(C(=O)c4ccc5c(c4)C(=O)C(C(=O)NC4CCN(S(C)(=O)=O)CC4)C5=O)cc3C2=O)CC1 (stereo not drawn) when you can.
Result: 3.39

* * *

# Lookup of reported inhibition at 10 µM keyed by entry
# TARGET_DESC: human PF4 (Homo sapiens, UniProt P02776)
# Construct: PF4 is a 70 amino acid, lysine-rich 7.8 kDa platelet-specific protein; made in house; host or cells: Escherichia coli BL21DE3 pLysS (pT7-7) and/or Drosophila S2 cells
# TEST_PROTOCOL: Inhibition of PF4 tetramer formation (BS3 cross-linking, SDS-PAGE)
# Type: biochemical
# SETTINGS: 10 μM inhibitor (column A); read-out: % inhibition of PF4 tetramer formation at single concentration of inhibitor
Provide only the numeric value, understood in %.

Task: Dear colleague, please send me the reported inhibition at 10 µM for O=C(Nc1ccc(I)cc1)C1C(=O)c2ccc(S(=O)(=O)c3ccc4c(c3)C(=O)C(C(=O)Nc3ccc(I)cc3)C4=O)cc2C1=O (stereo not drawn) when you can.
Result: 69

Task: Dear colleague, please send me the reported inhibition at 10 µM for O=C(c1ccc2c(c1)C(=O)C(C(=O)C1CCOC1)C2=O)c1ccc2c(c1)C(=O)C(C(=O)C1CCOC1)C2=O (stereo not drawn) when you can.
Result: 40

Task: Dear colleague, please send me the reported inhibition at 10 µM for O=C(c1ccc2c(c1)C(=O)C(C(=O)[C@@H]1C[C@H]1C(=O)O)C2=O)c1ccc2c(c1)C(=O)C(C(=O)[C@@H]1C[C@H]1C(=O)O)C2=O (stereo in doubt) when you can.
Result: 97

* * *

# TARGET_DESC: human PF4 (Homo sapiens)
# Construct: PF4 is a 70 amino acid, lysine-rich 7.8 kDa platelet-specific protein; made in house; host or cells: Escherichia coli BL21DE3 pLysS (pT7-7) and/or Drosophila S2 cells
# TEST_PROTOCOL: Inhibition of PF4 tetramer formation (BS3 cross-linking, SDS-PAGE)
# Type: biochemical
# SETTINGS: 3 μM inhibitor (column A); read-out: % inhibition of PF4 tetramer formation at single concentration of inhibitor
Given measured inhibition at 3 µM, output True if it is greater than or equal to 40% and False if not.

These solved cases illustrate the format of a correct answer.
- O=C(O)CCNC(=O)C1C(=O)c2ccc(Oc3ccc4c(c3)C(=O)C(C(=O)NCCC(=O)O)C4=O)cc2C1=O (stereo not shown): True
- COCCOCCNCC(=O)C1C(=O)c2ccc(Oc3ccc4c(c3)C(=O)C(C(=O)CNCCOCCOC)C4=O)cc2C1=O (stereo not shown): False
- CN(CC(=O)C1C(=O)c2ccc(C(=O)c3ccc4c(c3)C(=O)C(C(=O)CN(C)C(=O)OC(C)(C)C)C4=O)cc2C1=O)C(=O)OC(C)(C)C (stereo not shown): True
- CN(CC(=O)C1C(=O)c2ccc(Oc3ccc4c(c3)C(=O)C(C(=O)CN(C)C(=O)OC(C)(C)C)C4=O)cc2C1=O)C(=O)OC(C)(C)C (stereo not shown): True
- O=C(c1ccc2c(c1)C(=O)C(C(=O)NCC1CCS(=O)(=O)C1)C2=O)c1ccc2c(c1)C(=O)C(C(=O)NCC1CCS(=O)(=O)C1)C2=O (stereo not shown): True

Task: Decide: inhibition at 3 µM of O=C(CCC(=O)C1C(=O)c2ccc(S(=O)(=O)c3ccc4c(c3)C(=O)C(C(=O)CCC(=O)c3cccc(Cl)c3Cl)C4=O)cc2C1=O)c1cccc(Cl)c1Cl (stereo not shown) >= 40%?
Result: True

Task: Decide: inhibition at 3 µM of CC(C)C[C@@H](N)C(=O)C1C(=O)c2ccc(Oc3ccc4c(c3)C(=O)C(C(=O)[C@H](N)CC(C)C)C4=O)cc2C1=O (stereo partly shown) >= 40%?
Result: True

* * *

# Lookup of reported inhibition at 1 µM keyed by entry
# TARGET_DESC: human PF4 (Homo sapiens, UniProt P02776)
# Construct: PF4 is a 70 amino acid, lysine-rich 7.8 kDa platelet-specific protein; made in house; host or cells: Escherichia coli BL21DE3 pLysS (pT7-7) and/or Drosophila S2 cells
# TEST_PROTOCOL: Inhibition of PF4 tetramer formation (BS3 cross-linking, SDS-PAGE)
# Format: biochemical
# SETTINGS: 1 μM inhibitor; read-out: % inhibition of PF4 tetramer formation at single concentration of inhibitor
# output: number + unit

Here's what some known entries look like.
• COCCOCCC(=O)C1C(=O)c2ccc(C(=O)c3ccc4c(c3)C(=O)C(C(=O)CCOCCOC)C4=O)cc2C1=O (stereo not drawn) = 20%
• COCCOCCOCCNC(=O)C1C(=O)c2ccc(Oc3ccc4c(c3)C(=O)C(C(=O)NCCOCCOCCOC)C4=O)cc2C1=O (stereo not drawn) = 4%
• O=C(c1ccc2c(c1)C(=O)C(C(=O)NC1CCS(=O)(=O)C1)C2=O)c1ccc2c(c1)C(=O)C(C(=O)NC1CCS(=O)(=O)C1)C2=O (stereo not drawn) = 9%

For the next question, use this molecule.
Task: Dear colleague, please send me the reported inhibition at 1 µM for CC[C@H](C)[C@H](NC(=O)C1C(=O)c2ccc(S(=O)(=O)c3ccc4c(c3)C(=O)C(C(=O)N[C@H](C(=O)OC)[C@@H](C)CC)C4=O)cc2C1=O)C(=O)OC (stereo partly drawn) when you can.
Result: 15%

* * *

# Lookup of reported inhibition at 5 µM keyed by entry
# TARGET_DESC: human PF4 (Homo sapiens)
# Construct: PF4 is a 70 amino acid, lysine-rich 7.8 kDa platelet-specific protein; made in house; host or cells: Escherichia coli BL21DE3 pLysS (pT7-7) and/or Drosophila S2 cells
# TEST_PROTOCOL: Inhibition of PF4 tetramer formation (BS3 cross-linking, SDS-PAGE)
# Assay type: biochemical
# SETTINGS: 5 μM inhibitor; read-out: % inhibition of PF4 tetramer formation at single concentration of inhibitor
Provide only the numeric value, understood in %.

Here's what some known entries look like.
• COc1cccc(NC(=O)C2C(=O)c3ccc(S(=O)(=O)c4ccc5c(c4)C(=O)C(C(=O)Nc4cccc(OC)c4)C5=O)cc3C2=O)c1 (stereo not drawn) = 65
• CC(C)(C)OC(=O)N1CC2(CC(C(=O)C3C(=O)c4ccc(C(=O)c5ccc6c(c5)C(=O)C(C(=O)C5CC7(C5)CN(C(=O)OC(C)(C)C)C7)C6=O)cc4C3=O)C2)C1 (stereo not drawn) = 83
• O=C(NC1CC1)C1C(=O)c2ccc(S(=O)(=O)c3ccc4c(c3)C(=O)C(C(=O)NC3CC3)C4=O)cc2C1=O (stereo not drawn) = 60
• O=C1CC(=O)c2cc(C(c3ccc4c(c3)C(=O)CC4=O)(C(F)(F)F)C(F)(F)F)ccc21 = 16
• O=C(c1ccc2c(c1)C(=O)C(C(=O)NC1CCC1)C2=O)c1ccc2c(c1)C(=O)C(C(=O)NC1CCC1)C2=O (stereo not drawn) = 45

For the next question, use this compound.
Task: Dear colleague, please send me the reported inhibition at 5 µM for O=C(c1ccc2c(c1)C(=O)C(C(=O)NC1CC1)C2=O)c1ccc2c(c1)C(=O)C(C(=O)NC1CC1)C2=O (stereo not drawn) when you can.
Result: 27

* * *

# TARGET_DESC: human PF4 (Homo sapiens, UniProt P02776)
# Construct: PF4 is a 70 amino acid, lysine-rich 7.8 kDa platelet-specific protein; made in house; host or cells: Escherichia coli BL21DE3 pLysS (pT7-7) and/or Drosophila S2 cells
# Sequence (P02776 32-101): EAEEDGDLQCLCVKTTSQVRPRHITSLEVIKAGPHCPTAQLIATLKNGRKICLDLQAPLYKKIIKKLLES
# TEST_PROTOCOL: Inhibition of PF4 tetramer formation (BS3 cross-linking, SDS-PAGE)
# Assay type: biochemical
# SETTINGS: 10 μM inhibitor (column A); read-out: % inhibition of PF4 tetramer formation at single concentration of inhibitor
Given measured inhibition at 10 µM, output TRUE if it is greater than or equal to 90% and FALSE if not.

Task: Decide: inhibition at 10 µM of CO[C@@H](C(=O)C1C(=O)c2ccc(S(=O)(=O)c3ccc4c(c3)C(=O)C(C(=O)[C@H](OC)c3ccccc3)C4=O)cc2C1=O)c1ccccc1 (stereo partly drawn) >= 90%?
Result: FALSE

Task: Decide: inhibition at 10 µM of O=C(c1ccc2c(c1)C(=O)C(C(=O)Cc1ccccc1)C2=O)c1ccc2c(c1)C(=O)C(C(=O)Cc1ccccc1)C2=O (stereo not drawn) >= 90%?
Result: FALSE

Task: Decide: inhibition at 10 µM of CC(C)(C)OC(=O)N1CSC[C@H]1C(=O)C1C(=O)c2ccc(-c3ccc4c(c3)C(=O)C(C(=O)[C@@H]3CSCN3C(=O)OC(C)(C)C)C4=O)cc2C1=O (stereo partly drawn) >= 90%?
Result: TRUE

Task: Decide: inhibition at 10 µM of CCCCc1ccc(NC(=O)C2C(=O)c3ccc(S(=O)(=O)c4ccc5c(c4)C(=O)C(C(=O)Nc4ccc(CCCC)cc4)C5=O)cc3C2=O)cc1 (stereo not drawn) >= 90%?
Result: TRUE

Task: Decide: inhibition at 10 µM of CC(C)CCCC(=O)C1C(=O)c2ccc(C(=O)c3ccc4c(c3)C(=O)C(C(=O)CCCC(C)C)C4=O)cc2C1=O (stereo not drawn) >= 90%?
Result: FALSE
